Each entry below carries its recorded Enzyme assay raw data (0 μM drug = 100.00).
Molecular target: human CaMKK2 (residues 50–588) (Homo sapiens, UniProt Q96RR4)
Construct: recombinant bacterial expressed human CaMKK2 (residues 50–588); made in house
Test: CaMKK2 enzyme assay ([γ-32P]-ATP, CaMKKtide peptide);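 note: radiometric kinase assay: phosphate transfer from [γ-32P]-ATP to synthetic peptide substrate, 10 min reaction at 30 °C, peptide-bound radioactivity captured on P81 paper and measured by scintillation counting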
Format: biochemical
Conditions: [drug] 10 μM
// response body must contain only the number

Cc1ccc(Nc2nsnc(Nc3ccc(-c4ncc[nH]4)cc3)c2=O)cc1O [Compound 11] = 42.11
O=C(O)c1ccc2c3c1cccc3c(=O)n1c3ccccc3nc21 [STO-609, reference compound] = 1.89
Cc1ccc(Nc2nsnc(Nc3ccccc3C(N)=O)c2=O)cc1O [Compound 10] = 52.53

Memo: Cc1ccc(Nc2nsnc(Nc3ccc(C(=O)O)cc3)c2=O)cc1O [Compound 12] , reported Enzyme assay raw data (0 μM drug = 100.00): 28.43

----------
Target: STK10A (Homo sapiens, UniProt O94804)
Construct: TEV-cleavable (cleaved yes); made in house; host or cells: E. coli
Sequence (O94804 whole entry): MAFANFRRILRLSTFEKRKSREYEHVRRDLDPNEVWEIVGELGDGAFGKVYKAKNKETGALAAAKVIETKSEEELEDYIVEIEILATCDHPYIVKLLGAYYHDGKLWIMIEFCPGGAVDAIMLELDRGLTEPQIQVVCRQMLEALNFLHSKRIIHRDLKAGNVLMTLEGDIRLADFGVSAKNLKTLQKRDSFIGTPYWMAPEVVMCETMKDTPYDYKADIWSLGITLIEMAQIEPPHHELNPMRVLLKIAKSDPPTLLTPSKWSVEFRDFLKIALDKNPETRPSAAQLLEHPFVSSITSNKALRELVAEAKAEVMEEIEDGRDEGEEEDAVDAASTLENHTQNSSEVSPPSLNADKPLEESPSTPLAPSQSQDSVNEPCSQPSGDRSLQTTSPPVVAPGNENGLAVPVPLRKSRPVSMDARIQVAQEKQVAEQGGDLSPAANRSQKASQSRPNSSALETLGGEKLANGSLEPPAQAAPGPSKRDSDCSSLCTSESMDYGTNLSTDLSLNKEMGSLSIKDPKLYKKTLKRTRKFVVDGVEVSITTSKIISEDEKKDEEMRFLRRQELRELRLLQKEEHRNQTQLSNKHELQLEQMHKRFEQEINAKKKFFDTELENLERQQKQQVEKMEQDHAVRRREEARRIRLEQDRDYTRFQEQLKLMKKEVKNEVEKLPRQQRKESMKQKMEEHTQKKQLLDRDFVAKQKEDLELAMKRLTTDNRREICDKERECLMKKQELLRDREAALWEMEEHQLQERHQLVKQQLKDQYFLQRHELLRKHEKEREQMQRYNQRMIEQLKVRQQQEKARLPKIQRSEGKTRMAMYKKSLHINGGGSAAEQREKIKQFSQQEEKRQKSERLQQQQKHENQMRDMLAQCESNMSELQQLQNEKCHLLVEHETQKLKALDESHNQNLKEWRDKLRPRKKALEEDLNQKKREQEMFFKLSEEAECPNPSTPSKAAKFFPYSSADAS
Experiment: DSF thermal shift, kinase panel
Assay type: binding
Conditions: 10 μM compound
Field 'label' (enum: yes / no). Set to yes when ΔTm at 10 µM is strictly under 0.5 °C; else no.

Cc1ccc(Nc2nsnc(Nc3ccc4c(c3)CS(=O)(=O)C4)c2=O)cc1O = no
CNC(=O)c1ccccc1Nc1nsnc(Nc2ccc(N3CCOCC3)cc2)c1=O = yes
CNC(=O)c1ccccc1Nc1nsnc(Nc2cccc(CS(C)(=O)=O)c2)c1=O = yes

State whether 0.5 °C exceeds ΔTm at 10 µM recorded for Cc1ccc(Nc2nsnc(Nc3ccc(C(N)=O)cc3)c2=O)cc1O .
no

----------
Target: STK24A (Homo sapiens)
Construct: TEV-cleavable (cleaved yes); made in house; host or cells: E. coli
Sequence (Q9Y6E0 whole entry): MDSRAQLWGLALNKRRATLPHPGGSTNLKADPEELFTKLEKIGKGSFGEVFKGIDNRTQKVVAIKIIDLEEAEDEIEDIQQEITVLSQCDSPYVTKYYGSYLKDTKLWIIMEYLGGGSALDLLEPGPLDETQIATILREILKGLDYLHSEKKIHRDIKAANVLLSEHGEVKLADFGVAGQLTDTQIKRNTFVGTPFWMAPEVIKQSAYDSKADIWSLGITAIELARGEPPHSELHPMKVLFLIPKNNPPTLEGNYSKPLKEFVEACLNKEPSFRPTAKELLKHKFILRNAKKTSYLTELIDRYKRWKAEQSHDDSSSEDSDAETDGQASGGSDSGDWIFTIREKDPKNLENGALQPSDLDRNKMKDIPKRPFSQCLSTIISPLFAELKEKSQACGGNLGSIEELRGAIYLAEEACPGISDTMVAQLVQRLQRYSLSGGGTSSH
Test: DSF thermal shift, kinase panel
Format: binding
Settings: 10 μM compound
measurement_type: ΔTm at 10 µM (°C)
Write the answer as a number in °C, unit excluded.

Memo: CNC(=O)c1ccccc1Nc1nsnc(Nc2ccc(N3CCOCC3)cc2)c1=O [Compound 5] , reported ΔTm at 10 µM: -1.1

Memo: Cc1ccc(Nc2nsnc(Nc3cccc(C(N)=O)c3)c2=O)cc1O [Compound 1] , reported ΔTm at 10 µM: -0.1

Memo: Cc1ccc(Nc2nsnc(Nc3ccc4c(c3)CS(=O)(=O)C4)c2=O)cc1O [Compound 3] , reported ΔTm at 10 µM: -0.3

Memo: CNC(=O)c1ccccc1Nc1nsnc(Nc2cccc(CS(C)(=O)=O)c2)c1=O [Compound 4] , reported ΔTm at 10 µM: 0

----------
Target: CLK1 (Homo sapiens, UniProt P49759)
Construct: purchased in-house (home-made panel, SGC-style construct names)
Sequence (P49759 whole entry): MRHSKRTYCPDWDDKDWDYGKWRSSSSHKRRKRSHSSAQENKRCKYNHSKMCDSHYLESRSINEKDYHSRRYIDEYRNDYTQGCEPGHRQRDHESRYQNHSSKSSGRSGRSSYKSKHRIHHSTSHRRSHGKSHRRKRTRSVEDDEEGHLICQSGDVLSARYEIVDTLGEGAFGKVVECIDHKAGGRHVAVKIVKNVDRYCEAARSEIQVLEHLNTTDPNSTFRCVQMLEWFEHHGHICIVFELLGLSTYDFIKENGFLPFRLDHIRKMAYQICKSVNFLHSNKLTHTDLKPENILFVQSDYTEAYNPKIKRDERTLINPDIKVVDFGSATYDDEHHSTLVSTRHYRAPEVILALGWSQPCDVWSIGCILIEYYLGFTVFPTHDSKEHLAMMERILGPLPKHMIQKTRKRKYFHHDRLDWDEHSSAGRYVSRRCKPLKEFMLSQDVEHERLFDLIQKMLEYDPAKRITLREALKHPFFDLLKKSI
Assay: DSF thermal shift, kinase panel
Type: binding
Conditions: 10 μM compound
Procedure: The corresponding dianilino-TDZs (1–5) were tested on a panel of 46 protein kinases representing the major kinome branches at a concentration of 10 μM using a Differential Scanning Fluorimetry (DSF). […] Protein thermal shift data was measured in a qPCR instrument (Applied Biosystems QuantStudio 6) programmed to equilibrate the plate at 25 °C for 5 min followed by ramping the temperature to 95 °C at a rate of 0.05 °C/s. […]
measurement_type: ΔTm at 10 µM

Cc1ccc(Nc2nsnc(Nc3cccc(C(N)=O)c3)c2=O)cc1O [Compound 1] = 0.5 °C
Cc1ccc(Nc2nsnc(Nc3ccc(C(N)=O)cc3)c2=O)cc1O [Compound 2] = 0.9 °C
CNC(=O)c1ccccc1Nc1nsnc(Nc2ccc(N3CCOCC3)cc2)c1=O [Compound 5] = 1 °C
CNC(=O)c1ccccc1Nc1nsnc(Nc2cccc(CS(C)(=O)=O)c2)c1=O [Compound 4] = 0 °C

Response field ΔTm at 10 µM (CLK1 (Homo sapiens, UniProt P49759)) for item Cc1ccc(Nc2nsnc(Nc3ccc4c(c3)CS(=O)(=O)C4)c2=O)cc1O [Compound 3] : 2.1 °C

----------
Target: PLK1A (Homo sapiens, UniProt P53350)
Construct: purchased in-house (home-made panel, SGC-style construct names)
Sequence (P53350 whole entry): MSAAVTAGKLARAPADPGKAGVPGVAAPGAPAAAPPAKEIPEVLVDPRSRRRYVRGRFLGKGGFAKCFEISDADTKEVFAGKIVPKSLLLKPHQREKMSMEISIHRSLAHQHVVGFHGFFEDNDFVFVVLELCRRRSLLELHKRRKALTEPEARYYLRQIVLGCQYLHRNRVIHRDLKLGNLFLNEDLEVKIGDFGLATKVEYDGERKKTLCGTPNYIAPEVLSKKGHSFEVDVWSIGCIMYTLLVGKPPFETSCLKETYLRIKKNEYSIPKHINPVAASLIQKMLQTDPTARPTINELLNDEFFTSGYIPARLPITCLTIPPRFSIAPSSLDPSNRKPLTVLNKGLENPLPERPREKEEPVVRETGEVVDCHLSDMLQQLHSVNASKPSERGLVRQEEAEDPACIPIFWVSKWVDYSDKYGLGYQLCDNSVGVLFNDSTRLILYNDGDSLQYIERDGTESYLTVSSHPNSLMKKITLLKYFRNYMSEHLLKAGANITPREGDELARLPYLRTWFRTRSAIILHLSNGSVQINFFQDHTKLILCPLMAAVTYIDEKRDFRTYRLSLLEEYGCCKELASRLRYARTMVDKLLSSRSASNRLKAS
Test: DSF thermal shift, kinase panel
Type: binding
Details: 10 μM compound
measurement_type: ΔTm at 10 µM
Include the unit after the number when you answer.

Memo: CNC(=O)c1ccccc1Nc1nsnc(Nc2cccc(CS(C)(=O)=O)c2)c1=O [Compound 4] , reported ΔTm at 10 µM: 0.2 °C

Memo: Cc1ccc(Nc2nsnc(Nc3ccc4c(c3)CS(=O)(=O)C4)c2=O)cc1O [Compound 3] , reported ΔTm at 10 µM: 1.1 °C

Memo: Cc1ccc(Nc2nsnc(Nc3cccc(C(N)=O)c3)c2=O)cc1O [Compound 1] , reported ΔTm at 10 µM: 0.3 °C

Memo: CNC(=O)c1ccccc1Nc1nsnc(Nc2ccc(N3CCOCC3)cc2)c1=O [Compound 5] , reported ΔTm at 10 µM: 0.2 °C

Memo: Cc1ccc(Nc2nsnc(Nc3ccc(C(N)=O)cc3)c2=O)cc1O [Compound 2] , reported ΔTm at 10 µM: -0.2 °C

----------
Target: STK17AA (Homo sapiens)
Construct: TEV-cleavable (cleaved yes); made in house; host or cells: E. coli
Sequence (Q9UEE5 whole entry): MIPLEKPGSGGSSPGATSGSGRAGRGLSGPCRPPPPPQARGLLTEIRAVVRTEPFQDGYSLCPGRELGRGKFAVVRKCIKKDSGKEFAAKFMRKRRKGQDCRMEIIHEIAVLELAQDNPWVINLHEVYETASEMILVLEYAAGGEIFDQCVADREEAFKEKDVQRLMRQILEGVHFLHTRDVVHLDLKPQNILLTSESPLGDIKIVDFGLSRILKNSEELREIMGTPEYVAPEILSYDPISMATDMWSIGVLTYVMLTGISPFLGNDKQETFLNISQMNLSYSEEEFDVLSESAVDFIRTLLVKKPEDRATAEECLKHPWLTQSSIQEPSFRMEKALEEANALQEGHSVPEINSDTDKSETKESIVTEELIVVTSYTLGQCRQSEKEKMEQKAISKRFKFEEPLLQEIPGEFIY
Assay: DSF thermal shift, kinase panel
Assay type: binding
Details: 10 μM compound
Each entry below carries its recorded ΔTm at 10 µM.
Write the answer as a number in °C, unit excluded.

Cc1ccc(Nc2nsnc(Nc3ccc4c(c3)CS(=O)(=O)C4)c2=O)cc1O = 1.7
Cc1ccc(Nc2nsnc(Nc3ccc(C(N)=O)cc3)c2=O)cc1O = 2.2

Memo: CNC(=O)c1ccccc1Nc1nsnc(Nc2cccc(CS(C)(=O)=O)c2)c1=O , reported ΔTm at 10 µM: -0.8

Memo: Cc1ccc(Nc2nsnc(Nc3cccc(C(N)=O)c3)c2=O)cc1O , reported ΔTm at 10 µM: -0.5

Memo: CNC(=O)c1ccccc1Nc1nsnc(Nc2ccc(N3CCOCC3)cc2)c1=O , reported ΔTm at 10 µM: -0.8

----------
Each entry below carries its recorded ΔTm at 10 µM.
Target: CDK2 (Homo sapiens, UniProt P24941)
Construct: purchased in-house (home-made panel, SGC-style construct names)
Assay: DSF thermal shift, kinase panel
Format: binding
Settings: 10 μM compound
Method: The corresponding dianilino-TDZs (1–5) were tested on a panel of 46 protein kinases representing the major kinome branches at a concentration of 10 μM using a Differential Scanning Fluorimetry (DSF). […] Protein thermal shift data was measured in a qPCR instrument (Applied Biosystems QuantStudio 6) programmed to equilibrate the plate at 25 °C for 5 min followed by ramping the temperature to 95 °C at a rate of 0.05 °C/s. […]
Include the unit after the number when you answer.

Field: example entries. Status: answers known.
CNC(=O)c1ccccc1Nc1nsnc(Nc2ccc(N3CCOCC3)cc2)c1=O [Compound 5] = -0.1 °C
Cc1ccc(Nc2nsnc(Nc3ccc4c(c3)CS(=O)(=O)C4)c2=O)cc1O [Compound 3] = 1.8 °C
Cc1ccc(Nc2nsnc(Nc3ccc(C(N)=O)cc3)c2=O)cc1O [Compound 2] = 2.7 °C
CNC(=O)c1ccccc1Nc1nsnc(Nc2cccc(CS(C)(=O)=O)c2)c1=O [Compound 4] = 0.2 °C

Response field ΔTm at 10 µM (CDK2 (Homo sapiens, UniProt P24941)) for item Cc1ccc(Nc2nsnc(Nc3cccc(C(N)=O)c3)c2=O)cc1O [Compound 1] : 0.2 °C

----------
Each entry below carries its recorded ΔTm at 10 µM.
Biological target: STK3 (Homo sapiens, UniProt Q13188)
Construct: purchased in-house (home-made panel, SGC-style construct names)
Sequence (Q13188 whole entry): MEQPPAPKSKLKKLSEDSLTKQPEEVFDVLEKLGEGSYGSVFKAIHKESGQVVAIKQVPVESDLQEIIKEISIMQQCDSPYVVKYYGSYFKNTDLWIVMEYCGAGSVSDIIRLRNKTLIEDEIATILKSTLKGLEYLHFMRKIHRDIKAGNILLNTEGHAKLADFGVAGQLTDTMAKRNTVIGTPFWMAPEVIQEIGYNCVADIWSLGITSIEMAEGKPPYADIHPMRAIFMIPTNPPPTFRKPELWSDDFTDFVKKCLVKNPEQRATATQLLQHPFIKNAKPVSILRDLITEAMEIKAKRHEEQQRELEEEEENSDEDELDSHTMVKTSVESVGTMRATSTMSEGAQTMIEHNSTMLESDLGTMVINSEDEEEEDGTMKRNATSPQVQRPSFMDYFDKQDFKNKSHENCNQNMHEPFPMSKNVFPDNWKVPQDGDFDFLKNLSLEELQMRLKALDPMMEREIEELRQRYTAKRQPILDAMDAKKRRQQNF
Test: DSF thermal shift, kinase panel
Format: binding
Details: 10 μM compound

Cc1ccc(Nc2nsnc(Nc3ccc4c(c3)CS(=O)(=O)C4)c2=O)cc1O = 1.1 °C

Response field ΔTm at 10 µM (STK3 (Homo sapiens, UniProt Q13188)) for item CNC(=O)c1ccccc1Nc1nsnc(Nc2ccc(N3CCOCC3)cc2)c1=O : -0.3 °C

Response field ΔTm at 10 µM (STK3 (Homo sapiens, UniProt Q13188)) for item Cc1ccc(Nc2nsnc(Nc3ccc(C(N)=O)cc3)c2=O)cc1O : 2.1 °C

Response field ΔTm at 10 µM (STK3 (Homo sapiens, UniProt Q13188)) for item Cc1ccc(Nc2nsnc(Nc3cccc(C(N)=O)c3)c2=O)cc1O : 0.2 °C

Response field ΔTm at 10 µM (STK3 (Homo sapiens, UniProt Q13188)) for item CNC(=O)c1ccccc1Nc1nsnc(Nc2cccc(CS(C)(=O)=O)c2)c1=O : -0.4 °C

----------
Target: RPS6KA5A (Homo sapiens, UniProt O75582)
Construct: purchased in-house (home-made panel, SGC-style construct names)
Sequence (O75582 whole entry): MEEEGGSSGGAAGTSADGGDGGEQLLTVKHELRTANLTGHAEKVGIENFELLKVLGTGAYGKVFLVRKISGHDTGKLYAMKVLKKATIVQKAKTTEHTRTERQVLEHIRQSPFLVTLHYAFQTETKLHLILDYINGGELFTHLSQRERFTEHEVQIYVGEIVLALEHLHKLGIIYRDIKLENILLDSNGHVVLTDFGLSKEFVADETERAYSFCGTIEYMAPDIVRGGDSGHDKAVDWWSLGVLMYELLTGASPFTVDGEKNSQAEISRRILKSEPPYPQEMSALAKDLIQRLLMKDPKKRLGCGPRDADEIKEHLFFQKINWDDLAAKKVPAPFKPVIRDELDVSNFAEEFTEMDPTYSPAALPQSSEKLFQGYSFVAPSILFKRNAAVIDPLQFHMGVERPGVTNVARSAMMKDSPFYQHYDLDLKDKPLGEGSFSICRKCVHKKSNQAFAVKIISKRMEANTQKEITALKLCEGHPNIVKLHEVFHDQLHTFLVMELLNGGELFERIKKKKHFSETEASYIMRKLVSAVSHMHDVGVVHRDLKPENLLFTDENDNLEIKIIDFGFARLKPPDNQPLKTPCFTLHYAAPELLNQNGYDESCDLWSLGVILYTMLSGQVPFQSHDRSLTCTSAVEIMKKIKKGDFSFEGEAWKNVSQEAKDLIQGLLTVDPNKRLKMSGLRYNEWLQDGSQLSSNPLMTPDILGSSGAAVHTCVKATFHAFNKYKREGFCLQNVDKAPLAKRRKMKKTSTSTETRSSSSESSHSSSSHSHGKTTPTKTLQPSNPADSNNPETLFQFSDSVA
Experiment: DSF thermal shift, kinase panel
Type: binding
Settings: 10 μM compound
measurement_type: ΔTm at 10 µM (°C)
Write the answer as a number in °C, unit excluded.

Memo: Cc1ccc(Nc2nsnc(Nc3cccc(C(N)=O)c3)c2=O)cc1O , reported ΔTm at 10 µM: -0.9

Memo: CNC(=O)c1ccccc1Nc1nsnc(Nc2ccc(N3CCOCC3)cc2)c1=O , reported ΔTm at 10 µM: -1.1

Memo: Cc1ccc(Nc2nsnc(Nc3ccc4c(c3)CS(=O)(=O)C4)c2=O)cc1O , reported ΔTm at 10 µM: -0.3

Memo: CNC(=O)c1ccccc1Nc1nsnc(Nc2cccc(CS(C)(=O)=O)c2)c1=O , reported ΔTm at 10 µM: -1.2

Memo: Cc1ccc(Nc2nsnc(Nc3ccc(C(N)=O)cc3)c2=O)cc1O , reported ΔTm at 10 µM: 1.7
